target: calcium channel (3H-nitrendipine binding, heart membranes) (Oryctolagus cuniculus); construct: from tissue; host or cells: rabbit heart (crude membrane pellet); assay: Assay for inhibition of nitrendipine binding (3H-nitrendipine, rabbit heart membranes); conditions: 3H-nitrendipine 0.05-0.50 nM, 90 minutes at 4° C., compounds of Formula I (Table 1)
Sequence (P15381 whole entry, other chains not shown): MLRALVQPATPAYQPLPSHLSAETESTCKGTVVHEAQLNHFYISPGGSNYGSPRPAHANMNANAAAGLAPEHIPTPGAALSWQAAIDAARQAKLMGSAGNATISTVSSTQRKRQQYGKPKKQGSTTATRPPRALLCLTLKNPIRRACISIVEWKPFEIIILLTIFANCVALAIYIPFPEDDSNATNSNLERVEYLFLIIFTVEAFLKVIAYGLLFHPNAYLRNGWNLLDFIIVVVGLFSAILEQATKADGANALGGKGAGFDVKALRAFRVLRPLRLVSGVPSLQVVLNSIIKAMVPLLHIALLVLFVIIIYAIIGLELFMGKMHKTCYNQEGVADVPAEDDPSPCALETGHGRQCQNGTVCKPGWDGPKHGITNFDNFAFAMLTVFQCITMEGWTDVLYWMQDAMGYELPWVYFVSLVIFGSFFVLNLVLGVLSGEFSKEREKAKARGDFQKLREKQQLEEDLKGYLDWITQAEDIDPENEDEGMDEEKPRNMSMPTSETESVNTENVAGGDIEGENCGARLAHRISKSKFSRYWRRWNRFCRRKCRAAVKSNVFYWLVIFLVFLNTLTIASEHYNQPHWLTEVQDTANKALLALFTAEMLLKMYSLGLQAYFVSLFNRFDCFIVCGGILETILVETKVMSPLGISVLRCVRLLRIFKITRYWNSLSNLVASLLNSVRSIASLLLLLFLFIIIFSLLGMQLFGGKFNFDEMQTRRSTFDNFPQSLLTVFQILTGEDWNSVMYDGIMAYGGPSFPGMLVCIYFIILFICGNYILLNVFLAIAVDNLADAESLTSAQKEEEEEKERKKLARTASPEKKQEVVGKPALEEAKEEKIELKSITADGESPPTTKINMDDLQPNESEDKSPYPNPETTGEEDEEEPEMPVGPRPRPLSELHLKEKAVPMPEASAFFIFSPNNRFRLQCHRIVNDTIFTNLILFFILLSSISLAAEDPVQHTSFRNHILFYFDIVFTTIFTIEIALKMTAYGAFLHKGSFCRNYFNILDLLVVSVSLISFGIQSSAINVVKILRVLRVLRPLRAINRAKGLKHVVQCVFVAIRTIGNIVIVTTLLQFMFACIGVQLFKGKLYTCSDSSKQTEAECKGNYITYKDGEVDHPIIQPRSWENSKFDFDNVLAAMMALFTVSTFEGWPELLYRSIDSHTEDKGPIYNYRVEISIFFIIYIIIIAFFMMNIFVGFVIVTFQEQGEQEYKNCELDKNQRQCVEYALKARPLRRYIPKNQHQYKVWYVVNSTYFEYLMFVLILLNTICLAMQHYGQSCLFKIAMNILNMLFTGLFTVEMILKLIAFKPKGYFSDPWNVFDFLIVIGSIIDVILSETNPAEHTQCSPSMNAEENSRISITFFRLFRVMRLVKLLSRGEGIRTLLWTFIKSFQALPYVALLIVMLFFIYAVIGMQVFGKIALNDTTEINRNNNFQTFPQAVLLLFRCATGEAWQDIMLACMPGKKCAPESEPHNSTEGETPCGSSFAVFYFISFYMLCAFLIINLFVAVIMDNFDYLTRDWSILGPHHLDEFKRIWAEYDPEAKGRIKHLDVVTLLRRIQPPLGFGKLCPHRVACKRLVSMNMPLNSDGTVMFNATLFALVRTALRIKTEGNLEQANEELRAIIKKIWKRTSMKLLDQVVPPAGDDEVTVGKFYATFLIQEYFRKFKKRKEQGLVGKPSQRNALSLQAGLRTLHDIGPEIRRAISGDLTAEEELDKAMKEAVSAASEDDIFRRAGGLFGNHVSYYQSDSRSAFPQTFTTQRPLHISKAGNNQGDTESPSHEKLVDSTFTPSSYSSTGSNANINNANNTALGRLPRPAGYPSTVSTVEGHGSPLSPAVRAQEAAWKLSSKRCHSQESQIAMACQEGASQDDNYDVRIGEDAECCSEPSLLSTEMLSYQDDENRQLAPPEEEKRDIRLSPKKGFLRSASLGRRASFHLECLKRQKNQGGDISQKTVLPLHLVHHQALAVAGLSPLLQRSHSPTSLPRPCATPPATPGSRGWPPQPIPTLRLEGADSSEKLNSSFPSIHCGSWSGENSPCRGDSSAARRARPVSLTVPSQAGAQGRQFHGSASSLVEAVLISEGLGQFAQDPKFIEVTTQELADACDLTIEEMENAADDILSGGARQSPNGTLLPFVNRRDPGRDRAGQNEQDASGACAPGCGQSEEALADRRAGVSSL
Sequence (P13806 27-960 partner limits assumed, other chains not shown): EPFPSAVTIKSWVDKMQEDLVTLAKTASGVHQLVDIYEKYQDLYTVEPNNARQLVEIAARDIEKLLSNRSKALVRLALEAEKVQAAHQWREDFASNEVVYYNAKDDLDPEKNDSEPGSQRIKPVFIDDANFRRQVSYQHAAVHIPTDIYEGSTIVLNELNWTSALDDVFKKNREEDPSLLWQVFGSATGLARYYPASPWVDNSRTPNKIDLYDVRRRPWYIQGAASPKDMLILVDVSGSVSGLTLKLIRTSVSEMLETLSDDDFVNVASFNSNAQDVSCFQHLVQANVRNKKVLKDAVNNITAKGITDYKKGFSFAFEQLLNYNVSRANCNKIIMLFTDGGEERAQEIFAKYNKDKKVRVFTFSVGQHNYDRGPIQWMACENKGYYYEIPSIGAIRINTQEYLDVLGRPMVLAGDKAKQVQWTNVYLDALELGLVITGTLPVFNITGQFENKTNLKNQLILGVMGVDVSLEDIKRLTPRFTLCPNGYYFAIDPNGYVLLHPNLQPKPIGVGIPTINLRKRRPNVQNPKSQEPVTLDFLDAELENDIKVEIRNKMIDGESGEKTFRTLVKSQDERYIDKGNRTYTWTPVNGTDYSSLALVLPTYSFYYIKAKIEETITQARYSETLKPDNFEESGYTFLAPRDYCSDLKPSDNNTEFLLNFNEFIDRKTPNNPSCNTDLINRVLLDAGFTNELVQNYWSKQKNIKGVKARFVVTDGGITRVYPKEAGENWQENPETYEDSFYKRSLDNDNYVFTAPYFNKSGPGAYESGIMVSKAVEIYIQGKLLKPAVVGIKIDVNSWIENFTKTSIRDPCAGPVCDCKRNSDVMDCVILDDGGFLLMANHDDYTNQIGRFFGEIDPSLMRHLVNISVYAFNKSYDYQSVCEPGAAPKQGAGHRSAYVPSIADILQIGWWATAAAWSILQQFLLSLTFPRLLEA
Sequence (P13806 961-1106 partner limits assumed, other chains not shown): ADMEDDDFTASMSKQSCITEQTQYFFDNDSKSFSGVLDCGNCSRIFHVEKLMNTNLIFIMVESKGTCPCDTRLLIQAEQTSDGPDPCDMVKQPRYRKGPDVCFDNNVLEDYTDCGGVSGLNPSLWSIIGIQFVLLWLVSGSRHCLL
parameter: IC50
Respond with the figure and its unit, in that order.

compound | IC50
CC1=C(C(=O)OCCN(C)Cc2ccccc2)C(c2ccccc2[N+](=O)[O-])C2=C(COCCS2(=O)=O)N1 (centres unmarked) | 86 nM

What value of IC50 has been recorded for this entry: COC(=O)C1=C(C)NC2=C(C1c1cccc([N+](=O)[O-])c1)S(=O)(=O)CCOC2 (centres unmarked)
46 nM

What value of IC50 has been recorded for this entry: COC(=O)C1=C(C)NC2=C(C1c1cccc(Cl)c1)S(=O)(=O)CCOC2 (centres unmarked)
21 nM

What value of IC50 has been recorded for this entry: CC1=C(C(=O)OCCN(C)Cc2ccccc2)C(c2cccc(Cl)c2)C2=C(COCCS2(=O)=O)N1 (centres unmarked)
13 nM

What value of IC50 has been recorded for this entry: CC1=C(C(=O)OCCN(C)Cc2ccccc2)C(c2cccc([N+](=O)[O-])c2)C2=C(COCCS2(=O)=O)N1 (centres unmarked)
39 nM

What value of IC50 has been recorded for this entry: COC(=O)C1=C(C)NC2=C(C1c1ccccc1[N+](=O)[O-])S(=O)(=O)CCOC2 (centres unmarked)
34 nM

What value of IC50 has been recorded for this entry: CC1=C(C(=O)OCCN(C)Cc2ccccc2)C(c2ccccc2Cl)C2=C(COCCS2(=O)=O)N1 (centres unmarked)
129 nM

What value of IC50 has been recorded for this entry: COC(=O)C1=C(C)NC2=C(C1c1ccccc1Cl)S(=O)(=O)CCOC2 (centres unmarked)
12 nM
